# test: DUSP6 inhibitors restoring Erk phosphorylation by chemical complementation, primary imaging in DUSP6-transfected HeLa (AID 609)
# condition notes: HeLa MKP-3 transfected, phospho-Erk imaging KS statistic; measured here: nuclear pErk red intensity z-score; at 10 µM; stronger effect = higher value; cells stimulated with TPA for 15 min
The label depends only on z-score: y if it is at least -0.4, n if it is smaller.

Examples with answers:
> print(dat)
                                   compound  label.value
1     CC(=O)c1cc(C#N)c(SCC(=O)C(C)(C)C)nc1C            n
2  CCCCOc1ccccc1/C=c1/sc2nc(-c3oc4ccccc4c3C)nn2c1=O            y
3         CCOc1c(C)cc2[nH]c(CCC(=O)O)nc2c1C            n
4  CC1C[C@@]2(NC(=O)NC2=O)C(C)CN1C (stereo partly drawn)            n

Hi team, for CC(=O)Nc1nnc(S(N)(=O)=O)s1 , is the recorded z-score at or above -0.4?
y

Evaluate Cc1nnc(SCC2=C(C(=O)O)N3C(=O)[C@@H](NC(=O)Cn4cnnn4)[C@H]3SC2)s1 : z-score at minimum -0.4?
y

Exam item: decide whether the reported z-score for COc1ccc(-c2c3c([nH]c(=S)c2C#N)CCC3)cc1 is at least -0.4.
y

Decide: is the reported value of z-score for Cc1ccc(OCc2nnc(NC(=O)c3ccco3)s2)c(C)c1 equal to or greater than -0.4?
y

Exam item: decide whether the reported z-score for CC1(C)Cc2nc(N)c(C(=O)NCCO)cc2CO1 is at least -0.4.
y

Quick check, z-score >= -0.4? CCOC(=O)c1c(C)[nH]c(/C(C)=N/O)c1C
n

I'd appreciate it if you could say whether COC(=O)C(NC(C)=O)(Nc1ccccc1)C(=O)OC has z-score at least equal to -0.4.
n

Textbook exercise: given the entry N#C/C(C(=O)NCc1ccccc1)=C1\SC(CCO)C(=O)N1c1ccccc1 (stereo not drawn) , state whether its z-score is greater than or equal to -0.4.
n

Form field: z-score at least -0.4? Entry: COc1cccc(-c2nnc3sc(C4CCCCC4)nn23)c1
n

Textbook exercise: given the entry O=C(CN1C(=O)c2ccccc2C1=O)NCc1ccncc1 , state whether its z-score is greater than or equal to -0.4.
y

Tell me whether z-score is at least -0.4 here: Cc1ccc2[nH]c3c(N4CCN(Cc5ccc6c(c5)OCO6)CC4)ncnc3c2c1
n

Could you verify whether the entry Cc1ccc(-c2ccc(/C=N/c3ncn[nH]3)o2)cc1Cl shows z-score of no less than -0.4?
y

hey, is z-score for this one >= -0.4? COc1ccc(OC)c(NC(=O)CSC2=C(C#N)C(c3ccco3)C3=C(CCCC3=O)N2)c1 (stereo not drawn)
y

Threshold query (z-score >= -0.4) on CC1CN(C2CCN(S(=O)(=O)c3ccc4ccccc4c3)CC2)CC(C)O1 (stereo not drawn)
y

Please check the record Cc1c(O)c(CN2CCCC(C)C2)cc2c3c(c(=O)oc12)CCC3 (stereo not drawn) and state if its z-score is at or above -0.4.
y

Has COc1cccc(-c2nc(NC(C)(C)C)c3ccccc3n2)c1O a recorded z-score greater than or equal to -0.4?
y

Reported z-score at or above -0.4? O=C(c1ccc(=O)oc1)N1CCN(c2ccc(F)cc2)CC1
y

Is reported z-score greater than or equal to -0.4 here: CC1=CC(c2ccccc2)n2nc(N3C(=O)C4CC=CCC4C3=O)nc2N1 (stereo not drawn)
y

Please indicate if the recorded z-score for Cc1ccc2[nH]c3c(c2c1)CN(C(=O)CN1CCN(c2ccccn2)CC1)CC3 meets or exceeds -0.4.
n
